- tested_system: UniProt:P81908
- Sequence (P81908 whole entry): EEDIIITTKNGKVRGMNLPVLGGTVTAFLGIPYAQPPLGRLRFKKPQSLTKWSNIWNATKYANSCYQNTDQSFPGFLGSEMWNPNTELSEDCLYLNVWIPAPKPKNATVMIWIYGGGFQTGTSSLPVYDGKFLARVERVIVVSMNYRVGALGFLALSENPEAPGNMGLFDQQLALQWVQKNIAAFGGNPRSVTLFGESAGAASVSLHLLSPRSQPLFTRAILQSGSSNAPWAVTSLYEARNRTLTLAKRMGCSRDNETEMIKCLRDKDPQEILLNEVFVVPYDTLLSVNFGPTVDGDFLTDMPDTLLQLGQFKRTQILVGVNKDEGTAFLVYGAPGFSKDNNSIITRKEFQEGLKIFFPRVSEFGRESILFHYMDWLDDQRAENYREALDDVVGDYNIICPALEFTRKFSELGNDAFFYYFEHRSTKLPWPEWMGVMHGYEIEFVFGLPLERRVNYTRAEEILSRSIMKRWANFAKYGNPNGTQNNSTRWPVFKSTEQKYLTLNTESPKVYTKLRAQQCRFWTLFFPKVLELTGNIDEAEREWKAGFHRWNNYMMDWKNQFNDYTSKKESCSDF
- test_description: Ellman colorimetric assay with equine serum BuChE, concentration-response
reported_endpoint: pIC50
Here pIC50 is given on a logarithmic scale as minus log10 of the concentration in mol/L.

**Query** Please give the documented pIC50 of `C[C@H](Cc1cc2c(c(C(N)=O)c1)N(CCCO)CC2)NCCOc1ccccc1OCC(F)(F)F`
**Result** 5.52
